- protocol-description: Thermal stability of cysteine-NEM conjugates by DSC
- Type: physicochemical
- condition-parameters: DSC 25-100 °C, 1 °C per minute
property-measured: First Scan Tm (°C)
Enter your answer as a number in °C; do not include the unit.

# molecule, result-value
rows = [
    ("L32C: cysteine variant of P54AR4-83v2; NEM and VC-MMAF conjugates (conjugate, left off: small tags and cut ends, cysteine variant of P54AR4-83v2; NEM and VC-MMAF conjugates) LPAPKNLVVSEVTEDSARLSWDDPWAFYESFCIQYQESEKVGEAIVLTVPGSERSYDLTGLKPGTEYTVSIYGVHNVYKDTNMRGLPLSAIFTT", 71),
]

query: Retrieve First Scan Tm measured for S70C: cysteine variant of P54AR4-83v2 (SEQ ID NOS: 211 and 249); NEM and VC-MMAF conjugates (conjugate, NEM or vcMMAF conjugate; EGFR binding FN3 domain, NEM and VC-MMAF conjugates) MLPAPKNLVVSEVTEDSARLSWDDPWAFYESFLIQYQESEKVGEAIVLTVPGSERSYDLTGLKPGTEYTVCIYGVHNVYKDTNMRGLPLSAIFTT and print it.
result: 73

query: Retrieve First Scan Tm measured for L88C: cysteine variant of P54AR4-83v2 (SEQ ID NOS: 212 and 250); NEM and VC-MMAF conjugates (conjugate, NEM or vcMMAF conjugate; EGFR binding FN3 domain, NEM and VC-MMAF conjugates) MLPAPKNLVVSEVTEDSARLSWDDPWAFYESFLIQYQESEKVGEAIVLTVPGSERSYDLTGLKPGTEYTVSIYGVHNVYKDTNMRGLPCSAIFTT and print it.
result: 70
